So I've got a bunch of compounds here, and I need their Ratio values.
# Test system: Streptococcus pyogenes
# Test Details: Ratio of MBC to MIC for inducibly erythromycin resistant Streptococcus pyogenes 01-968 expressing i-ermA
# Type: functional
// no unit, no text: just the number

So what's the measured Ratio for this one? `CC[C@H]1OC(=O)[C@H](C)[C@@H](OCC#Cc2ccc(C(=O)c3ccccc3)s2)[C@H](C)[C@@H](O[C@@H]2O[C@H](C)C[C@H](N(C)C)[C@H]2O)[C@](C)(OC)C[C@@H](C)/C(=N\OC)[C@H](C)[C@H]2OC(=O)O[C@@]21C`
2

Same read-out for `CC[C@H]1OC(=O)[C@H](C)[C@@H](OC(=O)CCNCCCc2ccc3c(c2)c(=O)c(C(=O)O)cn3C2CC2)[C@H](C)[C@@H](O[C@@H]2O[C@H](C)C[C@H](N(C)C)[C@H]2O)[C@](C)(OC)C[C@@H](C)/C(=N\OC)[C@H](C)[C@H]2OC(=O)O[C@@]21C` ?
1

Same read-out for `CC[C@H]1OC(=O)[C@H](C)[C@@H](OCC#Cc2cncc(NC(=O)c3ccccn3)c2)[C@H](C)[C@@H](O[C@@H]2O[C@H](C)C[C@H](N(C)C)[C@H]2O)[C@](C)(OC)C[C@@H](C)/C(=N\OC)[C@H](C)[C@H]2OC(=O)O[C@@]21C` ?
2

----------
# Tested on: Streptococcus pneumoniae
# Test Details: Bactericidal activity against mef-encoded erythromycin resistant Streptococcus pneumoniae PU09 assessed as reduction in colony formation incubated in CAMHB medium for 20 to 24 hrs followed by 24 hrs subculturing in the medium without test compound
# Type: functional
So I've got a bunch of compounds here, and I need their MBC values.
Provide only the numeric value, understood in µg/mL.

So what's the measured MBC for this one? `CC[C@H]1OC(=O)[C@H](C)[C@@H](OC(=O)CCNCCCc2ccc3c(c2)c(=O)c(C(=O)O)cn3C2CC2)[C@H](C)[C@@H](O[C@@H]2O[C@H](C)C[C@H](N(C)C)[C@H]2O)[C@](C)(OC)C[C@@H](C)/C(=N\OC)[C@H](C)[C@H]2OC(=O)O[C@@]21C`
4

Same read-out for `CC[C@H]1OC(=O)[C@H](C)[C@@H](OC(=O)NCCCc2ccc3c(c2)c(=O)c(C(=O)O)cn3C2CC2)[C@H](C)[C@@H](O[C@@H]2O[C@H](C)C[C@H](N(C)C)[C@H]2O)[C@](C)(OC)C[C@@H](C)/C(=N\OC)[C@H](C)[C@H]2OC(=O)O[C@@]21C` ?
8

----------
# Tested on: Streptococcus pneumoniae
# Test Details: Antimicrobial activity against constitutively erythromycin resistant Streptococcus pneumoniae PU27 expressing c-erm incubated in CAMHB medium for 20 to 24 hrs by two-fold microbroth dilution method
# Assay type: functional
So I've got a bunch of molecules here, and I need their MIC values.
Provide only the numeric value, understood in µg/mL.

So what's the measured MIC for this one? `C=CCO/N=C1\[C@H](C)C[C@@](C)(OC)[C@H](O[C@@H]2O[C@H](C)C[C@H](N(C)C)[C@H]2O)[C@@H](C)[C@H](OCC#Cc2cncnc2)[C@@H](C)C(=O)O[C@H](CC)[C@@]2(C)OC(=O)O[C@@H]2[C@H]1C`
64

Same read-out for `C=CCO/N=C1\[C@H](C)C[C@@](C)(OC)[C@H](O[C@@H]2O[C@H](C)C[C@H](N(C)C)[C@H]2O)[C@@H](C)[C@H](OCC#Cc2cccnc2N)[C@@H](C)C(=O)O[C@H](CC)[C@@]2(C)OC(=O)O[C@@H]2[C@H]1C` ?
32

----------
# Test system: Staphylococcus epidermidis
# Test Details: Antimicrobial activity against Staphylococcus epidermidis E1 incubated in CAMHB medium for 20 hrs by two-fold microbroth dilution method
# Format: functional
# Condition: E1, 20 h
So I've got a bunch of compounds here, and I need their MIC values.
Provide only the numeric value, understood in µg/mL.

So what's the measured MIC for this one? `C=CCO/N=C1\[C@H](C)C[C@@](C)(OC)[C@H](O[C@@H]2O[C@H](C)C[C@H](N(C)C)[C@H]2O)[C@@H](C)[C@H](OCC#Cc2cncc(C#N)c2)[C@@H](C)C(=O)O[C@H](CC)[C@@]2(C)OC(=O)O[C@@H]2[C@H]1C`
256

Same read-out for `C=CCO/N=C1\[C@H](C)C[C@@](C)(OC)[C@H](O[C@@H]2O[C@H](C)C[C@H](N(C)C)[C@H]2O)[C@@H](C)[C@H](OCC#Cc2cncnc2)[C@@H](C)C(=O)O[C@H](CC)[C@@]2(C)OC(=O)O[C@@H]2[C@H]1C` ?
256

Same read-out for `C=CCO/N=C1\[C@H](C)C[C@@](C)(OC)[C@H](O[C@@H]2O[C@H](C)C[C@H](N(C)C)[C@H]2O)[C@@H](C)[C@H](OCC#Cc2ccnc(N)c2)[C@@H](C)C(=O)O[C@H](CC)[C@@]2(C)OC(=O)O[C@@H]2[C@H]1C` ?
256

----------
# Tested on: Streptococcus pneumoniae
# Test Details: Bactericidal activity against mef-encoded erythromycin resistant Streptococcus pneumoniae PU09 assessed as reduction in colony formation incubated in CAMHB medium for 20 to 24 hrs followed by 24 hrs subculturing in the medium without test compound
# Format: functional
Value Kind: MBC (µg/mL)
Provide only the numeric value, understood in µg/mL.

So what's the measured MBC for this one? `CC[C@H]1OC(=O)[C@H](C)[C@@H](OC(=O)NCCCc2cncc(N)c2)[C@H](C)[C@@H](O[C@@H]2O[C@H](C)C[C@H](N(C)C)[C@H]2O)[C@](C)(OC)C[C@@H](C)/C(=N\OC)[C@H](C)[C@H]2OC(=O)O[C@@]21C`
8

Same read-out for `CC[C@H]1OC(=O)[C@H](C)[C@@H](OC(=O)NCC#Cc2cccnc2)[C@H](C)[C@@H](O[C@@H]2O[C@H](C)C[C@H](N(C)C)[C@H]2O)[C@](C)(OC)C[C@@H](C)/C(=N\OC)[C@H](C)[C@H]2OC(=O)O[C@@]21C` ?
2

Same read-out for `CC[C@H]1OC(=O)[C@H](C)[C@@H](OC(=O)NCCCc2cccnc2)[C@H](C)[C@@H](O[C@@H]2O[C@H](C)C[C@H](N(C)C)[C@H]2O)[C@](C)(OC)C[C@@H](C)/C(=N\OC)[C@H](C)[C@H]2OC(=O)O[C@@]21C` ?
0.5

----------
So I've got a bunch of compounds here, and I need their MIC values.
# System: Staphylococcus aureus
# Test Details: Antimicrobial activity against inducibly erythromycin resistant Staphylococcus aureus PU64 expressing i-ermA incubated in CAMHB medium for 20 hrs by two-fold microbroth dilution method
# Type: functional
# Condition: PU64, 20 h

So what's the measured MIC for this one? `C=CCO/N=C1\[C@H](C)C[C@@](C)(OC)[C@H](O[C@@H]2O[C@H](C)C[C@H](N(C)C)[C@H]2O)[C@@H](C)[C@H](O)[C@@H](C)C(=O)O[C@H](CC)[C@@]2(C)OC(=O)O[C@@H]2[C@H]1C`
> 256 µg/mL

Same read-out for `C=CCO/N=C1\[C@H](C)C[C@@](C)(OC)[C@H](O[C@@H]2O[C@H](C)C[C@H](N(C)C)[C@H]2O)[C@@H](C)[C@H](OCC#Cc2cncnc2)[C@@H](C)C(=O)O[C@H](CC)[C@@]2(C)OC(=O)O[C@@H]2[C@H]1C` ?
256 µg/mL

Same read-out for `C=CCO/N=C1\[C@H](C)C[C@@](C)(OC)[C@H](O[C@@H]2O[C@H](C)C[C@H](N(C)C)[C@H]2O)[C@@H](C)[C@H](OCC#Cc2cccnc2N)[C@@H](C)C(=O)O[C@H](CC)[C@@]2(C)OC(=O)O[C@@H]2[C@H]1C` ?
64 µg/mL

Same read-out for `C=CCO/N=C1\[C@H](C)C[C@@](C)(OC)[C@H](O[C@@H]2O[C@H](C)C[C@H](N(C)C)[C@H]2O)[C@@H](C)[C@H](OCC#Cc2ccc(N)nc2)[C@@H](C)C(=O)O[C@H](CC)[C@@]2(C)OC(=O)O[C@@H]2[C@H]1C` ?
256 µg/mL

Same read-out for CC[C@H]1OC(=O)[C@H](C)C(=O)[C@H](C)[C@@H](O[C@@H]2O[C@H](C)C[C@H](N(C)C)[C@H]2O)[C@](C)(OC)C[C@@H](C)C(=O)[C@H](C)[C@H]2N(CCCCn3cnc(-c4cccnc4)c3)C(=O)O[C@]12C [TELITHROMYCIN] ?
0.125 µg/mL

Same read-out for `C=CCO/N=C1\[C@H](C)C[C@@](C)(OC)[C@H](O[C@@H]2O[C@H](C)C[C@H](N(C)C)[C@H]2O)[C@@H](C)[C@H](OCC#Cc2cncc(C#N)c2)[C@@H](C)C(=O)O[C@H](CC)[C@@]2(C)OC(=O)O[C@@H]2[C@H]1C` ?
128 µg/mL

Same read-out for `C=CCO/N=C1\[C@H](C)C[C@@](C)(OC)[C@H](O[C@@H]2O[C@H](C)C[C@H](N(C)C)[C@H]2O)[C@@H](C)[C@H](OCC#Cc2cncc(N)c2)[C@@H](C)C(=O)O[C@H](CC)[C@@]2(C)OC(=O)O[C@@H]2[C@H]1C` ?
128 µg/mL

Same read-out for `C=CCO/N=C1\[C@H](C)C[C@@](C)(OC)[C@H](O[C@@H]2O[C@H](C)C[C@H](N(C)C)[C@H]2O)[C@@H](C)[C@H](OCC#Cc2ccc(N)cn2)[C@@H](C)C(=O)O[C@H](CC)[C@@]2(C)OC(=O)O[C@@H]2[C@H]1C` ?
> 256 µg/mL

Same read-out for `C=CCO/N=C1\[C@H](C)C[C@@](C)(OC)[C@H](O[C@@H]2O[C@H](C)C[C@H](N(C)C)[C@H]2O)[C@@H](C)[C@H](OCC#Cc2cccc(N)n2)[C@@H](C)C(=O)O[C@H](CC)[C@@]2(C)OC(=O)O[C@@H]2[C@H]1C` ?
128 µg/mL

Same read-out for CC[C@H]1OC(=O)[C@H](C)[C@@H](O[C@H]2C[C@@](C)(OC)[C@@H](O)[C@H](C)O2)[C@H](C)[C@@H](O[C@@H]2O[C@H](C)C[C@H](N(C)C)[C@H]2O)[C@](C)(O)C[C@@H](C)CN(C)[C@H](C)[C@@H](O)[C@]1(C)O [AZITHROMYCIN] ?
> 256 µg/mL
